Test system: STZ-induced diabetes model
Assay: STZ-induced diabetic nephropathy, kidney disease and retinopathy model (28 days treatment)
Conditions: day 28 of treatment (week 9); 15 mg/kg IV, Captopril 50 mg/kg PO
Property: Trichrome staining (Kidney fibrosis)
// keep it numeric: no unit symbol after the value

| Compound | Target Desc | Recorded Number |
| --- | --- | --- |
| O=C(O)c1cc(O)c(C(=O)Nc2ccccc2-c2nnn[nH]2)cc1O [Ia-001a-Tz] | STZ-induced diabetes model | 2.6 |

I have this compound here, C[C@H](CS)C(=O)N1CCC[C@H]1C(=O)O [Captopril, reference compound] , and I need its recorded Trichrome staining (Kidney fibrosis).
1.98

I have this compound here, O=C(O)c1cc(NC(=O)c2cc(O)c(C(=O)O)cc2O)cc(NC(=O)c2cc(O)c(C(=O)O)cc2O)c1 [Ib-010a] , and I need its recorded Trichrome staining (Kidney fibrosis).
1.97

I have this compound here, O=C(O)c1cc(O)cc(CS(=O)(=O)Cc2cc(O)cc(C(=O)O)c2O)c1O [IVc-059a] , and I need its recorded Trichrome staining (Kidney fibrosis).
1.48

###

System: acute pancreatitis murine model
Assay: Caerulein-induced acute pancreatitis murine model
Type: in vivo, Balb/c mice
Details: 1st experiment; caerulein induced; 15 mg/kg IV, Ib-010a and IVc-059a 150 mg/kg PO, Pirfenidone 40 mg/kg IV
Property: Haemorrhage (group mean score)
// keep it numeric: no unit symbol after the value

Sample answers from the record:
| Compound | Haemorrhage (group mean score) |
| --- | --- |
| Cc1ccc(=O)n(-c2ccccc2)c1 [pirfenidone, reference compound] | 0.4 |
| O=C(O)c1cc(O)c(C(=O)Nc2ccccc2C(=O)O)cc1O [Ia-001a] | 1.1 |

I have this compound here, O=C(O)c1cc(O)c(CN(Cc2cc(O)c(C(=O)O)cc2O)Cc2cc(O)c(C(=O)O)cc2O)cc1O [IIIc-061a] , and I need its recorded Haemorrhage (group mean score).
1.0

I have this compound here, O=C(O)c1cc(NC(=O)c2cc(O)c(C(=O)O)cc2O)cc(NC(=O)c2cc(O)c(C(=O)O)cc2O)c1 [Ib-010a] , and I need its recorded Haemorrhage (group mean score).
0.8

I have this compound here, O=C(O)c1cc(NC(=O)c2cc(O)c(C(=O)Nc3ccccc3-c3nnn[nH]3)cc2O)ccc1O [Ic-001a-Tz/004a] , and I need its recorded Haemorrhage (group mean score).
1.0

I have this compound here, O=C(O)c1cc(NC(=O)c2cc(O)c(C(=O)Nc3ccc(O)c(C(=O)O)c3)cc2O)ccc1O [Ic-007a] , and I need its recorded Haemorrhage (group mean score).
1.0

I have this compound here, O=C(O)c1cc(O)cc(CS(=O)(=O)Cc2cc(O)cc(C(=O)O)c2O)c1O [IVc-059a] , and I need its recorded Haemorrhage (group mean score).
1.0

###

Tested on: IL-33
Assay: Cytokine release after LPS induction on human whole blood: IL-33
Assay type: cell-based
Conditions: Homo sapiens; LPS 10 ng/ml, 18 h; read-out: Whole Blood: IL-33 IC50
Property: log10(IC50) (log10 of the value in nM)
Scale: decimal log of IC50, IC50 in nM.

| Molecule | Target Desc | log10(IC50) |
| --- | --- | --- |
| O=C(O)c1cc(O)c(CN(Cc2cc(O)c(C(=O)O)cc2O)Cc2cc(O)c(C(=O)O)cc2O)cc1O [IIIc-061a] | IL-33 | 2.49 |
| O=C(O)c1cc(O)cc(CSCc2cc(O)cc(C(=O)O)c2O)c1O [IVc-058a] | IL-33 | 4.53 |
| COC(=O)c1cc(OC(C)=O)cc(CS(=O)(=O)Cc2cc(OC(C)=O)cc(C(=O)OC)c2OC(C)=O)c1OC(C)=O [IVc-059a-E2-A4] | IL-33 | 4.37 |
| CC(=O)N(Cc1cc(O)c(C(=O)O)cc1O)Cc1cc(O)c(C(=O)O)cc1O [IIIc-057a] | IL-33 | 3.47 |
| O=C(O)c1cc(NC(=O)c2cc(O)c(C(=O)O)cc2O)cc(NC(=O)c2cc(O)c(C(=O)O)cc2O)c1 [Ib-010a] | IL-33 | 4.50 |

I have this molecule here, O=C(O)c1cc(NC(=O)c2cc(O)c(C(=O)O)cc2O)cc(C(=O)O)c1 [Ia-015a] , and I need its recorded log10(IC50).
2.38

I have this molecule here, O=C(Nc1ccccc1-c1nnn[nH]1)c1cc(O)c(C(=O)Nc2ccccc2-c2nnn[nH]2)cc1O , and I need its recorded log10(IC50).
2.36
